- system: F508delCFTR (Homo sapiens, UniProt P13569, DEL508-508)
- Construct: expressed in transfected cells; host or cells: CFBE41o- human lung-derived epithelial cells (CFBE4lo-F508delCFTR-HRP), doxycycline-inducible
- Sequence (P13569 with tags, fused parts or gaps DEL508-508): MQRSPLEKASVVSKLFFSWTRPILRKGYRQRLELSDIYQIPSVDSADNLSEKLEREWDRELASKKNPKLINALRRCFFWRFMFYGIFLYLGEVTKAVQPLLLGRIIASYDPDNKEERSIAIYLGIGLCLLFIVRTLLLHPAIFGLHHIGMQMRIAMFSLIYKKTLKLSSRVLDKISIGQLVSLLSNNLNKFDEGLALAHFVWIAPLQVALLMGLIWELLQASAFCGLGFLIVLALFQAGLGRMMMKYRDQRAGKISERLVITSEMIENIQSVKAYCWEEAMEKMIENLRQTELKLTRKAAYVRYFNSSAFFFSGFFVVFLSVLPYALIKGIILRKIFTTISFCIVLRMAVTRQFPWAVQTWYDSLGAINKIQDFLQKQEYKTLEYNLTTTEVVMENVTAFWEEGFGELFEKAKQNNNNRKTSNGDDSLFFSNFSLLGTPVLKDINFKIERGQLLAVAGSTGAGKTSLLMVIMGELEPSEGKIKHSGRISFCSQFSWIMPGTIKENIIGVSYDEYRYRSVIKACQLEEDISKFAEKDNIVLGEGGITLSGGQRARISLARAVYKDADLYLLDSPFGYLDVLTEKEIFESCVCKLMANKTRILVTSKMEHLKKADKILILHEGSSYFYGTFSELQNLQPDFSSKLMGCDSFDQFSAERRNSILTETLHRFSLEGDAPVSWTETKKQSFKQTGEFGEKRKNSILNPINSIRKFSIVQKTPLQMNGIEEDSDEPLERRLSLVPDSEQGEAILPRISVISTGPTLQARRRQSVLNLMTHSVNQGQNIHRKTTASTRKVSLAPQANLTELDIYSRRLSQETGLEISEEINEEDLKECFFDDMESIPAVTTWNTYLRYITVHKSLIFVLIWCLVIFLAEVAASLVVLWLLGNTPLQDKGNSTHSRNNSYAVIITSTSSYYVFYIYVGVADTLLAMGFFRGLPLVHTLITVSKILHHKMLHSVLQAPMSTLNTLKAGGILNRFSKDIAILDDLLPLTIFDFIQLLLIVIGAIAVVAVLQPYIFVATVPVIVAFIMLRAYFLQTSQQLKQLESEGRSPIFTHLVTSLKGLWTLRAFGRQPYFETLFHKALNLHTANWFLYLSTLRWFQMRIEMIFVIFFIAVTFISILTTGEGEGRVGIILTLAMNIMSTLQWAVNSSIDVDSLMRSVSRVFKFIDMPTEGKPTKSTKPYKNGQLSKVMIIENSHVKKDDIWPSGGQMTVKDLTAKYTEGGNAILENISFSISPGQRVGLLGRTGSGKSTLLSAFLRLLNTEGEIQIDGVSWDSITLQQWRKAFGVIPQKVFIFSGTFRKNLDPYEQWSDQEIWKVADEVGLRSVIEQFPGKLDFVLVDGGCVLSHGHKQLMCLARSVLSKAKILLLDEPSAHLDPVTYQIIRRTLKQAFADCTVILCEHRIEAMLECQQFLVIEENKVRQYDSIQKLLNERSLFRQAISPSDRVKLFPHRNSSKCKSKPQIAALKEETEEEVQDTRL
- assay-info: Cell Surface Expression-Horse Radish Peroxidase (CSE-HRP) Assay
- Format: cell-based
- condition-info: CSE-HRP; with co-corrector (2 μM of 3-[(2R,4R)-4-({[1-(2,2-difluoro-1,3-benzodioxol-5-yl)cyclopropyl]carbonyl}amino)-7-methoxy-3,4-dihydro-2H-chromen-2-yl]benzoic acid); read-out: EC50 (with co-corrector)
- Method: Cell Surface Expression-Horse Radish Peroxidase (CSE-HRP) Assay The development was achieved by expressing the F508delCFTR mutation along with a horseradish peroxidase (HRP) in the fourth exofacial loop, and then measuring the HRP activity using luminescence readout from these cells, CFBE4lo-F508delCFTR-HRP, that were incubated overnight with the test corrector compounds, either without or with the co-corrector. […] The raw counts from the experiment were analyzed using Accelrys® Assay Explorer v3.3. […]
pEC50: −log10 of the molar value.
readout-type: pEC50

Worked examples follow.
>>> print(df.to_string())
                                   compound  result_value
0  COc1ncc(C2CCC2)cc1CN[C@H]1[C@H](C(C)(C)C)[C@@H](C(=O)O)N(C(=O)C2CCCCC2)[C@H]1c1cccc2c1OC(C)(C)C2        > 6.00
1  COc1c(Cl)cccc1CN[C@@H]1[C@@H](C(C)(C)C)[C@H](C(=O)O)N(C(=O)C2CCCCC2)[C@@H]1c1ccccc1 (racemic)  5.00 to 6.00

Next compound, pEC50 to be filled in.
Recorded pEC50 of CC(C)OC(=O)N1[C@H](C(=O)O)[C@@H](C(C)(C)C)[C@H](NCC2CCCN(c3ccc(C(F)(F)F)cc3)C2)[C@@H]1c1ccccc1 (stereo partly drawn) , please.
5.00 to 6.00
